# Tested on: HOS (Osteosarcoma);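 also: after 72 h of two-drug dosing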
# protocol.summary: Bliss excess, mean over the matrix (fraction); higher = more synergy
assay.metric: Bliss excess
Provide a numeric answer; units are not to be included.

Below are worked cases with known answers.
INSERT INTO results (compound, assay_metric, recorded_result) VALUES
  ('CS(=O)(=O)CCNCc1ccc(-c2ccc3ncnc(Nc4ccc(OCc5cccc(F)c5)c(Cl)c4)c3c2)o1 [Lapatinib] + C[C@@H](Oc1cc(-c2cnn(C3CCNCC3)c2)cnc1N)c1c(Cl)ccc(F)c1Cl [Crizotinib] (first compound max 10 µM, 7x7, partner max 10 µM)', 'Bliss excess', 0.0138),
  ('Cn1cnc2c(F)c(Nc3ccc(Br)cc3Cl)c(C(=O)NOCCO)cc21 [Selumetinib] + CCN(CCO)CCCOc1ccc2c(Nc3cc(CC(=O)Nc4cccc(F)c4)[nH]n3)ncnc2c1 [AZD2811] (first compound max 10 µM, 7x7, partner max 1 µM)', 'Bliss excess', -0.0192),
  ('Cc1c2c(nn1C)CSCc1cc(n(C)n1)CSc1cc(c3ccccc3c1)OCCCc1c(C(=O)O)n(C)c3c-2c(Cl)ccc13 [AZD5991] + C=CCn1c(=O)c2cnc(Nc3ccc(N4CCN(C)CC4)cc3)nc2n1-c1cccc(C(C)(C)O)n1 [AZD1775] (first compound max 1 µM, partner max 1 µM)', 'Bliss excess', -0.0274),
  ('COc1cccc(OCCCN)c1-c1cc(Nc2cnc(C#N)cn2)n[nH]1 [Prexasertib] + CCc1c2c(nc3ccc(O)cc13)-c1cc3c(c(=O)n1C2)COC(=O)[C@]3(O)CC [SN-38] (first compound max 1 µM, 7x7, partner max 0.3 µM)', 'Bliss excess', 0.0409),
  ('C[C@@H](Nc1cc(F)cc(F)c1)c1cc(C(=O)N(C)C)cc2c(=O)cc(N3CCOCC3)oc12 [AZD8186] + CC(=O)c1c(C)c2cnc(Nc3ccc(N4CCNCC4)cn3)nc2n(C2CCCC2)c1=O [Palbociclib] (first compound max 10 µM, 7x7, partner max 10 µM)', 'Bliss excess', -0.0227),
  ('COc1cccc(OCCCN)c1-c1cc(Nc2cnc(C#N)cn2)n[nH]1 [Prexasertib] + C=CCn1c(=O)c2cnc(Nc3ccc(N4CCN(C)CC4)cc3)nc2n1-c1cccc(C(C)(C)O)n1 [AZD1775] (first compound max 1 µM, partner max 1 µM)', 'Bliss excess', 0.0888);

Considering N#Cc1cnc(Nc2cc(NC[C@H]3CNCCO3)c(C(F)(F)F)cn2)cn1 [SRA737] + CCc1c2c(nc3ccc(O)cc13)-c1cc3c(c(=O)n1C2)COC(=O)[C@]3(O)CC [SN-38] (first compound max 10 µM, 7x7, partner max 0.3 µM) , its Bliss excess with HOS (Osteosarcoma) was recorded as 0.0136

Attribution: the supplement of paper PMC11061612
